- Study System: μ receptor (Rattus norvegicus)
- Construct: frozen rat brains (−80° C.) were homogenized in 40 volumes of standard Tris buffer; from tissue; host or cells: rat brain (crude plasma membranes)
- Sequence (P33535 whole entry): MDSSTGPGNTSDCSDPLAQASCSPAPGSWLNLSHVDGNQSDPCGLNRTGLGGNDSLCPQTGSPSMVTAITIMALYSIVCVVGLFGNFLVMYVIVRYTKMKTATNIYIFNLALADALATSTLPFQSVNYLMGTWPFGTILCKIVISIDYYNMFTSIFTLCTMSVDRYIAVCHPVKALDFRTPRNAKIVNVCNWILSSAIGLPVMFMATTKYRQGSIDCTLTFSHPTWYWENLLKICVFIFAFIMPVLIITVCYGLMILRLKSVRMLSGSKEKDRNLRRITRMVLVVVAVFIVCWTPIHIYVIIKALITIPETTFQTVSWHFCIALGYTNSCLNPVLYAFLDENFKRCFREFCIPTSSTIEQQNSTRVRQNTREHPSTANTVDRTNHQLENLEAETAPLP
- Method: μ receptor binding assay, [3H]DAMGO competition, crude rat brain plasma membranes
Outcome Measure: Kd

Challenge: Fill blank: measured Kd of the substance H-YPFFGLM-NH2 [ESP7, Tyr-Pro-Phe-Phe-Gly-Leu-Met-NH2] is ____.
Response given: ~300 nM

* * *

- Study System: NK1 receptor (Rattus norvegicus, UniProt P14600)
- Construct: The same procedure was followed for the SP receptor except the wash with NaCl was eliminated; from tissue; host or cells: rat brain (crude plasma membranes)
- Sequence (P14600 whole entry): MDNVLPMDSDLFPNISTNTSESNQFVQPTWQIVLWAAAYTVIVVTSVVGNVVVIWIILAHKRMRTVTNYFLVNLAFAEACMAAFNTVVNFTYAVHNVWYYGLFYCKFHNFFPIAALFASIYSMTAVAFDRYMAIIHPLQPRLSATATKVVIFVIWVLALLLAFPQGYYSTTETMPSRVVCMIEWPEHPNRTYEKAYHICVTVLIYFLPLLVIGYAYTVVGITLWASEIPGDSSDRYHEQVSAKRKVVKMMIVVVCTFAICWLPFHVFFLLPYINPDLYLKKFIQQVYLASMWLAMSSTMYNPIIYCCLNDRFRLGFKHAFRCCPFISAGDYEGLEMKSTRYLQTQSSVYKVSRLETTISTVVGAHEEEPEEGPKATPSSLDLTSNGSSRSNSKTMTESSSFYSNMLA
- Method: SP (NK1) receptor binding assay, [125I]BH-SP competition, crude rat brain plasma membranes
pKd: −log10 of the molar value.
Outcome Measure: pKd

Challenge: API: value(readout= pKd, system= NK1 receptor (Rattus norvegicus, UniProt P14600), query= H-YPFFGLM-NH2 [ESP7, Tyr-Pro-Phe-Phe-Gly-Leu-Met-NH2] )
Response given: ~6.70
